# target.or.test.system: Aurora Kinase A (Homo sapiens)
# Construct: full length Aurora A (1-403 amino acids); purchased Carna Biosciences 05-101
# Sequence (O14965 1-403): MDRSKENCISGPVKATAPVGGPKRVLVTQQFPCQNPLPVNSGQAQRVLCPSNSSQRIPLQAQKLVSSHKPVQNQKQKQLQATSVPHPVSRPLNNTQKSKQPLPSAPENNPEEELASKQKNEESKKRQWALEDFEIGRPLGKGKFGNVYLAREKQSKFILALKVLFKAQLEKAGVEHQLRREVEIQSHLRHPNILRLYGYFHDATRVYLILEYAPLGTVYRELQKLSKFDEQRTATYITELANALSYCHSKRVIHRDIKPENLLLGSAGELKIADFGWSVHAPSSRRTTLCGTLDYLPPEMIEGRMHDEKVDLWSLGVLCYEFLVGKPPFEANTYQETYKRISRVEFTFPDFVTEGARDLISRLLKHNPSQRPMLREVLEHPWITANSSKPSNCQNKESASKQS
# protocol.summary: Biochemical enzyme assay for Aurora A activity (Caliper LC3000 / Desktop Profiler mobility shift)
observable: IC50

[[record]]
compound = "COc1ccccc1C(=O)Nc1ccc(N)cc1 [Compound 16, N-(4-Aminophenyl)-2-methoxy-benzamide]"
observable = "IC50"
result = "1 to 300 nM"


---

# target.or.test.system: Aurora Kinase A (Homo sapiens, UniProt O14965)
# Construct: full length Aurora A (1-403 amino acids); purchased Carna Biosciences 05-101
# protocol.summary: Biochemical enzyme assay for Aurora A activity (Caliper LC3000 / Desktop Profiler mobility shift)
# measurement.conditions: GST-Aurora A, 15 μM ATP, 90 min at 25° C.; LC3000 or Desktop Profiler; read-out: Aurora Kinase A IC50
observable: IC50

[[record]]
compound = "O=C(Nc1ccc(Nc2ccnc3[nH]c(=O)ccc23)cc1)c1ccc(F)cc1F [Compound 44]"
result = "301 to 600 nM"

[[record]]
compound = "CC(C)(C)C(=O)Nc1cc(Cl)ccn1 [Compound 28]"
result = "1 to 300 nM"

[[record]]
compound = "CN(C)CCNC(=O)c1c(-c2ccccc2)c2c(Nc3ccc(NC(=O)c4ccc(F)c(F)c4)cc3)ccnc2[nH]c1=O [Compound 77]"
result = "> 1000 nM"

[[record]]
compound = "Nc1ccc(NC(=O)c2ccc(C(F)(F)F)cc2)cc1 [Compound 6]"
result = "1 to 300 nM"

[[record]]
compound = "O=C(Nc1ccc(Nc2ccnc3[nH]c(=O)cc(OCC4CC4)c23)cc1)c1ccccc1 [Compound 93]"
result = "1 to 300 nM"

[[record]]
compound = "O=C(Nc1ccc(Nc2ccnc3[nH]c(=O)c([N+](=O)[O-])cc23)cc1)c1ccc(F)cc1C(F)(F)F [Compound 88]"
result = "1 to 300 nM"

[[record]]
compound = "O=C(Nc1ccc(Nc2ccnc3[nH]c(=O)ccc23)cc1)c1ccccc1C(F)(F)F [Compound 37]"
result = "601 to 1000 nM"

[[record]]
compound = "O=C(Nc1ccc(Nc2ccnc3[nH]c(=O)ccc23)cc1)C1CCCCC1 [Compound 45]"
result = "1 to 300 nM"


---

# target.or.test.system: Aurora Kinase A (Homo sapiens, UniProt O14965)
# Construct: full length Aurora A (1-403 amino acids); purchased Carna Biosciences 05-101
# protocol.summary: Biochemical enzyme assay for Aurora A activity (Caliper LC3000 / Desktop Profiler mobility shift)
# measurement.conditions: GST-Aurora A, 15 μM ATP, 90 min at 25° C.; LC3000 or Desktop Profiler; read-out: Aurora Kinase A IC50
observable: IC50

[[record]]
molecule = "O=C(Nc1ccc(Nc2ccnc3[nH]c(=O)ccc23)cc1)c1c(F)cccc1F"
observable = "IC50"
result = "0.001 to 0.3 µM"

[[record]]
molecule = "Nc1ncnc(Nc2ccc(NC(=O)c3ccccc3)cc2)c1C=O"
observable = "IC50"
result = "> 1 µM"

[[record]]
molecule = "O=C(O)Cc1cc2c(Cl)ccnc2[nH]c1=O"
observable = "IC50"
result = "0.001 to 0.3 µM"

[[record]]
molecule = "O=C(Nc1ccc(Nc2ccnc3[nH]c(=O)ccc23)cc1)c1ccc(F)cc1C(F)(F)F"
observable = "IC50"
result = "0.001 to 0.3 µM"

[[record]]
molecule = "Nc1ccc(NC(=O)c2ccc(F)c(F)c2)cc1 [Compound 10, N-(4-Aminophenyl)-3,4-difluoro-benzamide]"
observable = "IC50"
result = "0.301 to 0.6 µM"

[[record]]
molecule = "Cc1ccc(C(=O)Nc2ccc(N)cc2)cc1 [Compound 17, N-(4-Aminophenyl)-4-methyl-benzamide]"
observable = "IC50"
result = "0.001 to 0.3 µM"

[[record]]
molecule = "Nc1ccc(NC(=O)c2cc(F)cc(F)c2)cc1 [Compound 11, N-(4-Aminophenyl)-3,5-difluoro-benzamide]"
observable = "IC50"
result = "0.001 to 0.3 µM"

[[record]]
molecule = "Nc1ccc(NC(=O)C2CCCCC2)cc1"
observable = "IC50"
result = "0.001 to 0.3 µM"

